System: KMS-11
Assay: Cytotoxicity in human KMS11 cells assessed as reduction in cell viability incubated for 72 hrs Cell-titer Glo reagent based assay
Type: functional
Conditions: KMS-11, 72 h
Exercise: for every item that follows, state its recorded EC50.
Reply with just the number (in nM).

Looking up `C=CC(=O)N1CC/C(=C\c2ccc(F)c([N+](=O)[O-])c2)C(=O)/C(=C/c2ccc(F)c([N+](=O)[O-])c2)C1` , I found its EC50 recorded as 43

The measured EC50 associated with `C#CCC(=O)N1CC/C(=C\c2ccc(F)c([N+](=O)[O-])c2)C(=O)/C(=C/c2ccc(F)c([N+](=O)[O-])c2)C1` reads 46

Entry source: ChEMBL document CHEMBL4354861
